Assay: Absorption experiment of NLPL in rats (blood LC-MS/MS)
Type: in vivo
Settings: rat, blood, po; SD rats, intragastric 50 mg/kg bw; during the measurement time (to 360 min)
Residues, ends and D or L forms follow the SMILES beside them.
readout name: AUC (ng·h/mL)
Give bare numbers, in ng·h/mL.

# input # get_value(readout='AUC', item= CC(C)C[C@H](NC(=O)[C@@H]1CCCN1C(=O)[C@H](CC(C)C)NC(=O)[C@@H](N)CC(N)=O)C(=O)O [NLPL] (H-NLPL-OH; N-terminus and C-terminus assumed) )
# output 7.14

Data provenance is patent US12331136B2.
